# Tested on: COLO 205
# protocol: NCI tumour cell line growth inhibition, 48 h
Calls of active or inactive are those of the source. Cut-off read from the data, not from the text of the source: active = GI50 up to about 1.1 µM and inactive = higher.
Allowed answers: Yes (active), No (inactive)

>>> df
                                   compound  cat
0  Cc1cn(C2CC(O)C(COP(=O)(O)OC3CC(n4c[n+]([BH2-]C#N)c5c(=O)[nH]c(N)nc54)OC3CO)O2)c(=O)[nH]c1=O (stereo unspecified)   No
1  CCCCN(CC)CC(C(C)=O)c1c(O)c2ccccc2oc1=O (stereo unspecified)   No
2  COc1ccc(-c2c(C#N)c(N)nc3c2CCS(=O)(=O)c2ccccc2-3)cc1   No
3  Cc1c(Cc2ccccc2)c(Cc2ccccc2)c(C)[s+]1[O-]   No
4                          N#Cc1ncn(CCO)c1N   No

Asked: Recorded call for O=C(/C=C/c1ccc(O)c(O)c1)OCCCc1ccccc1 ?
Given back: No

Asked: Recorded call for O=C(/C=C/c1ccccc1)Nc1ccccc1SCCCCl ?
Given back: No

Asked: Recorded call for Cc1c2ncccc2c(C)c2c1[nH]c1ccccc12 ?
Given back: No

Asked: Recorded call for [N-]=[N+]=NC(CCl)c1cn([C@H]2C[C@H](O)[C@@H](CO)O2)c(=O)[nH]c1=O (stereo partly specified) ?
Given back: No

###

# System: LOX IMVI
# protocol: NCI tumour cell line growth inhibition, 48 h
Activity calls are given as the source filed them. Cut-off read from the data, not from the text of the source: active = GI50 up to about 1.1 µM and inactive = higher.
Reported GI50 values for a set of compounds

Solved entries:
                                   compound  readoutkind   experimentalresult
0  NC(=O)/C(=N\NC(=O)C[n+]1ccccc1)C1NC(=O)NC1=O (configuration not stated)         GI50  > 100 µM (inactive)
1  CCCCCCCCCCCCCCCCOP(=O)(O)OP(=O)(O)OCC1OC(n2cnc3c(N)ncnc32)C(O)C1O (configuration not stated)         GI50  > 100 µM (inactive)
2     Cc1c2cccc-2c(N(C)C)cc2c1[nH]c1ccccc12         GI50   3.94 µM (inactive)
3  COC(=O)C(CCCCCCCC(C(=O)OC)C1=Nc2nnc(N)n2C1=O)C1=Nc2nnc(N)n2C1=O (configuration not stated)         GI50  > 100 µM (inactive)
4  CC1CC2(S(=O)(=O)c3ccccc3)ON1CC2S(=O)(=O)c1ccccc1 (configuration not stated)         GI50  > 100 µM (inactive)
5  C/C(C=O)=C/[C@@]1(C)O[C@@H](C)[C@@](C)(O)[C@@H]1O         GI50   95.5 µM (inactive)

Asked: Could you share which GI50 value was measured for CC1(O)/C(=N/O)CC2CC1C2(C)C (configuration not stated) ?
Given back: > 100 µM (inactive)

Asked: Could you share which GI50 value was measured for N#CC1(c2ccccc2)CCN(C2(c3ccccc3)CCCCC2)CC1 ?
Given back: > 100 µM (inactive)

Asked: Could you share which GI50 value was measured for Cc1cc(S(=O)(=O)NC2=Nc3ccccc3C(c3ccccc3)N2)c(S)cc1Cl (configuration not stated) ?
Given back: 39.3 µM (inactive)

###

# Tested on: OVCAR-8
# protocol: NCI tumour cell line growth inhibition, 48 h
The source made the active and inactive calls. Cut-off read from the data, not from the text of the source: active = GI50 up to about 1.1 µM and inactive = higher.
Allowed answers: active, inactive

Examples with answers:
>>> print(df.to_string())
                                   compound  targetorsystem       cat
0  COC(=O)C1=CC2CCCC1(O)C(C(C)=O)C2 (stereo not given)         OVCAR-8  inactive
1   Cn1c(=O)c2ccc(-c3ccc(Br)cc3)nc2n(C)c1=O         OVCAR-8  inactive

Asked: Recorded call for CCN(CC)CCn1ncc2ccc3c(c(=O)c4cccnc4n3CCN(CC)CC)c21 ?
Given back: active

Asked: Recorded call for O=C(Nc1ccc(Cl)cc1)c1cccc([N+](=O)[O-])c1O ?
Given back: inactive
